molecular target: HLA-A*02:03; assay: IEDB peptide-MHC binding, purified MHC/competitive/radioactivity; bounds were set here for any values at or beyond the usual limits of such assays; conditions: source organism: Influenza A virus
Provide the recorded IC50 for the entries that follow.
Quick reminder: number only, in nM, skip the unit.

Form field IC50, entry CLINDPWVL : 255

IC50 measured on NVMGMIGI = 4810

Input WISFAISCFL . Output IC50: 355

YLIRALTL has a reported IC50 of 145

Query CVNGSCFTV yields IC50 of 1130

SCINRCFYV yielded IC50 of 947

IC50 reported for this sequence NMLSTVLGV : 10

Given item MQIAILVTTV , the value recorded as its IC50 is 6

The sequence listed as TTQIIKLLPFA shows IC50 equal to 3430

The sequence AIMDKNIML showed IC50 equal to 802

sequence ALANTIEV , IC50 observed: 59

So, VNPTLLFLKV ? Its IC50 was 2810

The sequence listed as RLIDFLKDV shows IC50 equal to 7.3

Per the record, VNNAVVMPA has IC50 of 712

The value of IC50 measured for the sequence SSLENFRAYV turned out to be 1140

The sequence listed as RTFFLTQGA shows IC50 equal to 158

get_value(item= AMDSNTLEL , readout=IC50) returns 524

Sure, the documented IC50 for LVASSGTLEFI is 697

Note to self: IC50 recorded for RAMAWTVVNSI was 66

Per the records, this sequence ( RLIQNSITI ) has IC50 equal to 28

Notebook: RTEIIRMMESA , IC50 read as 4470

---

biological target: HLA-A*02:02; experiment: IEDB peptide-MHC binding, purified MHC/competitive/radioactivity; bounds were set here for any values at or beyond the usual limits of such assays; conditions: source organism: Vaccinia virus WR
For each record, write down the corresponding IC50.
Quick note: give the figure in nM, leave out the unit.

In plain terms, IVAMLLTHGA has a documented IC50 of 1160

Please fill in: IC50 reported for KTPDYPLIDI = 1120

Summary for this sequence, FLPQIGGEA : IC50 is 21

Entry under test: NLFDIPLLT . Its IC50 was 135

// ATLNTLITL : IC50 value = 373

Record WVMDTLNGIM , field IC50: 1330

Form field IC50, entry LLENKSLTIL : 185

IC50 recorded for this sequence, IVNCLSLSNL , is 338

// VLTSVDIET : IC50 value = 382

The sequence identified as VTTNNLLEQL registered its IC50 at 4690

Record summary for YTVEFDRDKV : reported IC50 = 83

response.value for YLGIFKNNDV (field: IC50) = 15

Sure, the documented IC50 for KLLNMRDLIV is 194

Value of IC50 reported for the sequence IICEDAMYYA is 24

The measured IC50 associated with SVKNLILNFL reads 1040

Entry RAKRKPAMST ; IC50 = 977

Lookup result for ALMTLDDLAI ; measured IC50: 14

Kindly note the recorded IC50 for DTIAHINTL , which is 747

Memo: FTKDGKLDDT , reported IC50: 145

// IC50 value for YLLFNHFSV : 1.2

Sample YIEDELRRA ; IC50 observed: 1760

Lab note: measured IC50 of FQESFYEDI was 2280

For this sequence ( SIVCIVAAV ), measured IC50 is 3.9

So, DTIAHINTLI ? Its IC50 was 1160

// recorded IC50 for DAEFVMCLEA : 2410

Reported IC50 for DTCLLAISAV was 2460

Kindly note the recorded IC50 for IAVITETIPI , which is 515

// sample GINNVQSLI , its IC50 was 474

Data point: TTFITVLTSV ; IC50 = 1120

Measured IC50 of SIKMIYDLNA : 852

Reported IC50 of SMYVIPDELI : 31

YLSDSDNIKI yielded IC50 of 16

Looking up LLPLTSLVIT , I found its IC50 recorded as 999

Kindly note the recorded IC50 for GLFDINVIGL , which is 0.16

The reported IC50 of the sequence ETIQKDINIT was 354

// field: IC50; key: GLSSGFYFEI ; value = 48

Briefly, IC50 measured for GAFMYTKHSM : 544

// recorded IC50 for KIEDLINQLV : 87

Noted for LVAEHRFENM : its IC50 reads 2050

Please fill in: IC50 reported for PLPCQLMYAL = 163

Short answer for HTYHLENDKI : IC50 was 1790

For this sequence ( VATFRDMLL ), measured IC50 is 2530

Recorded result, YTKHSMLTNA , IC50: 3900

Noted for YAGTIKESLL : its IC50 reads 1020
